# pEC50 listing for each entry below
TESTED TARGET: ERRα (Homo sapiens)
Sequence (P11474 whole entry, species assumed): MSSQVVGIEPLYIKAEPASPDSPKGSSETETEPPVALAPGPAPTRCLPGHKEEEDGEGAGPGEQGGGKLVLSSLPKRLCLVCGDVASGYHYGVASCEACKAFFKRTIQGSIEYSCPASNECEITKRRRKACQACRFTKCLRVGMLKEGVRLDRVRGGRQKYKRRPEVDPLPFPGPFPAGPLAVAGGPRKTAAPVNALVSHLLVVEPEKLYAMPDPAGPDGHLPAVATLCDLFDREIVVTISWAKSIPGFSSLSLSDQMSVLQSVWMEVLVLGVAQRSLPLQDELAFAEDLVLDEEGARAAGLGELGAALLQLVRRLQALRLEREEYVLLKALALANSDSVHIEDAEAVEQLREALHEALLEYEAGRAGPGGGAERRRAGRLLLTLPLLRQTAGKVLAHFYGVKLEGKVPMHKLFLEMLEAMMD
EXPERIMENT DESCRIPTION: ERRE luciferase reporter assay in HEK293 cells transfected with pcDNA3.1 ERRα
MEASUREMENT CONTEXT: 24 hours treatment, luciferase activity
pEC50: −log10 of the molar value.
MEASURE NAME: pEC50

1) Oc1ccccc1C1CC(c2cccs2)=NN1 (centres unmarked): < 5.30
2) Oc1ccccc1C1CC(c2ccccc2F)=NN1 (centres unmarked): 5.30 to 6.00
3) COc1ccc(C2=NNC(c3ccccc3O)C2)cc1 (centres unmarked): > 6.00
4) Oc1ccc(C2CC(c3cccc(O)c3)=NN2)cc1 (centres unmarked): 5.30 to 6.00
5) COc1ccc(C2=NNC(c3cccc(Cl)c3O)C2)cc1 (centres unmarked): 5.30 to 6.00
6) Oc1ccccc1C1CC(c2cccnc2)=NN1 (centres unmarked): < 5.30
7) Oc1cccc(C2CC(c3ccc(Br)cc3)=NN2)c1 (centres unmarked): 5.30 to 6.00
8) Cc1cccc(C2=NNC(c3ccccc3O)C2)c1 (centres unmarked): > 6.00
9) Oc1cccc(C2CC(c3ccccc3O)=NN2)c1 (centres unmarked): 5.30 to 6.00
10) Cc1nc[nH]c1C1CC(c2ccc(Br)cc2)=NN1 (centres unmarked): < 5.30
11) Oc1ccccc1C1CC(c2ccccn2)=NN1 (centres unmarked): < 5.30
12) Oc1ccccc1C1CC(c2ccc(OC(F)(F)F)cc2)=NN1 (centres unmarked): > 6.00
13) Oc1cccc(C2CC(c3ccccc3F)=NN2)c1 (centres unmarked): 5.30 to 6.00
14) Oc1cccc(C2=NNC(c3cccc(O)c3)C2)c1 (centres unmarked): 5.30 to 6.00
15) Oc1ccccc1C1=NNC(c2ccccc2O)C1 (centres unmarked): < 5.30
16) Oc1ccccc1C1CC(c2cccc(OC(F)(F)F)c2)=NN1 (centres unmarked): < 5.30
17) Oc1ccccc1C1=NNC(c2ccc(Br)cc2)C1 (centres unmarked): > 6.00
18) Oc1ccc(C2CC(c3cccc(F)c3)=NN2)cc1 (centres unmarked): < 5.30
19) Oc1ccccc1C1CC(c2cccc(Cl)c2)=NN1 (centres unmarked): 5.30 to 6.00
20) Oc1ccc(C2CC(c3ccc(Br)cc3)=NN2)cc1 (centres unmarked): > 6.00
21) Oc1ccccc1C1=NNC(c2ccc(Br)cc2O)C1 (centres unmarked): < 5.30
22) Oc1c(Br)cccc1C1CC(c2ccc(Br)cc2)=NN1 (centres unmarked): 5.30 to 6.00
23) Oc1cccc(C2CC(c3cccc(Br)c3)=NN2)c1 (centres unmarked): 5.30 to 6.00

---

TESTED TARGET: ERRα (Homo sapiens)
Construct: expressed in transfected cells; host or cells: HEK293
EXPERIMENT DESCRIPTION: ERRE luciferase reporter assay in HEK293 cells transfected with pcDNA3.1 ERRα
Format: cell-based
MEASUREMENT CONTEXT: 24 hours treatment, luciferase activity
# EC50 listing for each entry below
MEASURE NAME: EC50

1. Oc1ccccc1C1=NNC(c2ccccc2)C1 (centres unmarked) [Entry 50]: < 1 µM
2. Oc1ccc(C2CC(c3ccc(F)cc3)=NN2)cc1 (centres unmarked) [Entry 85]: > 5 µM
3. Oc1cccc(C2=NNC(c3cnc[nH]3)C2)c1 (centres unmarked) [Entry 102]: > 5 µM
4. Oc1ccccc1C1=NNC(c2ncc[nH]2)C1 (centres unmarked) [Entry 92]: > 5 µM
5. Oc1cccc(C2=NNC(c3ccc(Br)cc3)C2)c1 (centres unmarked) [Entry 108]: 1 to 5 µM
6. Cc1ccc(O)c(C2CC(c3ccccc3)=NN2)c1 (centres unmarked) [Entry 39]: < 1 µM
7. Oc1cccc(C2CC(c3ccc(F)cc3)=NN2)c1 (centres unmarked) [Entry 87]: 1 to 5 µM
8. FC(F)(F)c1ccc(C2=NNC(c3ccccc3)C2)cc1 (centres unmarked) [Entry 75]: 1 to 5 µM
9. Oc1ccccc1C1CC(c2ccc(Br)cc2)=NN1 (centres unmarked) [Entry 24]: < 1 µM
10. COc1ccccc1C1=NNC(c2ccccc2O)C1 (centres unmarked) [Entry 53]: 1 to 5 µM
11. Oc1ccc2cc(C3CC(c4ccccc4F)=NN3)ccc2c1 (centres unmarked) [Entry 107]: 1 to 5 µM
12. COc1cccc(C2CC(c3ccc(Br)cc3)=NN2)c1O (centres unmarked) [Entry 36]: < 1 µM
13. Oc1ccc(C2CC(c3ccc(C(F)(F)F)cc3)=NN2)cc1 (centres unmarked) [Entry 73]: 1 to 5 µM
14. Oc1cccc(C2CC(c3cccc(F)c3)=NN2)c1 (centres unmarked) [Entry 78]: 1 to 5 µM
15. Oc1ccccc1C1CC(c2ccc(Cl)cc2)=NN1 (centres unmarked) [Entry 47]: > 5 µM
16. COc1ccc(C2=NNC(c3ccc(C)cc3O)C2)cc1 (centres unmarked) [Entry 59]: > 5 µM
17. COc1ccc(C2=NNC(c3ccccc3)C2)c(O)c1 (centres unmarked) [Entry 52]: < 1 µM
18. Oc1ccc(C2CC(c3ccc(Cl)cc3)=NN2)cc1 (centres unmarked) [Entry 7]: > 5 µM
19. Oc1ccc(C2=NNC(c3ccc(Br)cc3)C2)cc1 (centres unmarked) [Entry 89]: > 5 µM
20. Nc1ccccc1C1CC(c2ccccc2)=NN1 (centres unmarked) [Entry 37]: < 1 µM
21. Oc1ccccc1C1CC(c2ccc(F)cc2)=NN1 (centres unmarked) [Entry 46]: 1 to 5 µM
22. Brc1cccc(C2=NNC(c3ccc4ccccc4c3)C2)c1 (centres unmarked) [Entry 86]: > 5 µM
23. Oc1cccc(C2=NNC(c3ccc4ccccc4c3)C2)c1 (centres unmarked) [Entry 99]: 1 to 5 µM
24. Fc1ccccc1C1=NNC(c2ccc3ccccc3c2)C1 (centres unmarked) [Entry 106]: < 1 µM
25. Oc1cccc(C2CC(c3ccc(Cl)cc3)=NN2)c1 (centres unmarked) [Entry 10]: 1 to 5 µM
26. Oc1ccccc1C1CC(c2cccc(Br)c2)=NN1 (centres unmarked) [Entry 29]: > 5 µM
27. Oc1cccc(C2CC(c3ccc(C(F)(F)F)cc3)=NN2)c1 (centres unmarked) [Entry 74]: 1 to 5 µM
28. Oc1cccc(C2=NNC(c3ccc4cc(O)ccc4c3)C2)c1 (centres unmarked) [Entry 94]: 1 to 5 µM
29. Clc1ccccc1C1=NNC(c2ccc3ccccc3c2)C1 (centres unmarked) [Entry 101]: < 1 µM
30. COc1cccc(C2=NNC(c3ccccc3O)C2)c1 (centres unmarked) [Entry 62]: 1 to 5 µM
31. Oc1ccccc1C1=NNC(c2ccc(Cl)cc2)C1 (centres unmarked) [Entry 66]: < 1 µM
32. Cc1ccc(C2CC(c3ccccc3)=NN2)c(O)c1 (centres unmarked) [Entry 38]: 1 to 5 µM
33. Oc1ccccc1C1CC(c2cccc(F)c2)=NN1 (centres unmarked) [Entry 31]: 1 to 5 µM
34. Oc1c(Cl)cccc1C1CC(c2ccc(Br)cc2)=NN1 (centres unmarked) [Entry 45]: 1 to 5 µM
35. Oc1ccc(C2CC(c3cccc(Br)c3)=NN2)cc1 (centres unmarked) [Entry 84]: > 5 µM
36. Oc1cccc(C2=NNC(c3ccccc3O)C2)c1 (centres unmarked) [Entry 96]: 1 to 5 µM
37. Oc1ccccc1C1CC(c2ccccc2)=NN1 (centres unmarked) [Entry 34]: > 5 µM
38. Oc1ccccc1C1CC(c2ccc(C(F)(F)F)cc2)=NN1 (centres unmarked) [Entry 40]: < 1 µM

---

TESTED TARGET: ERRγ (Homo sapiens, UniProt P62508)
Sequence (P62508 whole entry): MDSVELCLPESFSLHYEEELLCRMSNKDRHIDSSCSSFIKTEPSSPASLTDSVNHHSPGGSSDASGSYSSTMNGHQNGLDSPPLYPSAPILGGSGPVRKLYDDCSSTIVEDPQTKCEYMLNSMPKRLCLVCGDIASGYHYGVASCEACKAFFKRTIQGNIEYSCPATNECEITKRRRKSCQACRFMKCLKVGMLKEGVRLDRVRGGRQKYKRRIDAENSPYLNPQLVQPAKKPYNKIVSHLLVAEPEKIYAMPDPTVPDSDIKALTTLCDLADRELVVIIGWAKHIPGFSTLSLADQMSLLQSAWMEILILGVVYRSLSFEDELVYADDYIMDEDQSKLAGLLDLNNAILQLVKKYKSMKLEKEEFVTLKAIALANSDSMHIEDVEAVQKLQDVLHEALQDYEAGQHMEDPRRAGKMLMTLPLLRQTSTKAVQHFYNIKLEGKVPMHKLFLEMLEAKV
EXPERIMENT DESCRIPTION: ERRE luciferase reporter assay in HEK293 cells transfected with pcDNA3.1 ERRγ
MEASUREMENT CONTEXT: 24 hours treatment, luciferase activity
# EC50 listing for each entry below
MEASURE NAME: EC50

1) Oc1ccccc1C1CC(c2ccccc2F)=NN1 (centres unmarked) [Entry 54]: > 5 µM
2) Oc1cccc(C2=NNC(c3cnc[nH]3)C2)c1 (centres unmarked) [Entry 102]: > 5 µM
3) Nc1ccccc1C1CC(c2ccccc2)=NN1 (centres unmarked) [Entry 37]: < 1 µM
4) Cc1ccc(C2CC(c3ccccc3)=NN2)c(O)c1 (centres unmarked) [Entry 38]: 1 to 5 µM
5) Oc1cccc(C2CC(c3cccc(Br)c3)=NN2)c1 (centres unmarked) [Entry 97]: 1 to 5 µM
